IC50 reference
Target: Human Factor D (Homo sapiens)
Construct: purified from human serum; purchased Complement Technology, Inc; host or cells: human serum (natural protein, not recombinant)
Sequence (P00746 26-253): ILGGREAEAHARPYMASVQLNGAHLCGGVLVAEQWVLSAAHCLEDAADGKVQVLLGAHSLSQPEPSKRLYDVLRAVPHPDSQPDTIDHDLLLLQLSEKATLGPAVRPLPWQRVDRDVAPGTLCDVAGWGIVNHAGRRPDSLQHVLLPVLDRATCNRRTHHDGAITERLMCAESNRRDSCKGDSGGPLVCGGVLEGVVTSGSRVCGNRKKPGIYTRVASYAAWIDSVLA
Assay: Human Factor D Assay
Type: biochemical
Conditions: Table 3; Human Factor D 80 nM, substrate Z-L-Lys-SBzl; read-out: (IC50 (Stars))

{"COMPOUND": "CC(=O)c1nn(CC(=O)N2C[C@H]3C[C@H]3[C@H]2C(=O)Nc2nc(Br)ccc2C2CC2)c2ccc(O[C@@H]3CO[C@H]4[C@@H]3OC[C@H]4O)cc12 [Compound 184]", "SYSTEM": "Human Factor D (Homo sapiens)", "IC50": "< 1000 nM"}
{"COMPOUND": "CC(=O)c1nn(CC(=O)N2C[C@H]3C[C@H]3[C@H]2C(=O)Nc2nc(Br)ccc2C)c2ccc(O[C@@H]3CO[C@H]4[C@@H]3OC[C@H]4O)cc12 [Compound 185]", "SYSTEM": "Human Factor D (Homo sapiens)", "IC50": "< 1000 nM"}
{"COMPOUND": "CC(=O)c1nn(CC(=O)N2C[C@H](F)C[C@H]2C(=O)Nc2cccc(Br)n2)c2ccc(Oc3cc(C)ncn3)cc12 [Compound 180]", "SYSTEM": "Human Factor D (Homo sapiens)", "IC50": "< 1000 nM"}
